Source listed as the Immune Epitope Database (IEDB).

Target: HLA-A*02:06
Assay: IEDB peptide-MHC binding, purified MHC/competitive/fluorescence; filed as Kd, often an IC50 or EC50 that approximates it; bounds were set here for any values at or beyond the usual limits of such assays
Details: source organism: Human immunodeficiency virus 1
Let's look at some sequences and their measured Kd.
Field format: number, assumed nM, no unit text.

Example entries and their recorded answers appear below.
EVKSLFNTV : 84.9
GLGQHIYET : 119

Please find the next sequence below.
The observed Kd for RSLFNTIAVLY when tested with HLA-A*02:06 stands at 676

====

Target: HLA-A*02:01
Assay: IEDB peptide-MHC binding, purified MHC/direct/fluorescence; filed as Kd, often an IC50 or EC50 that approximates it; bounds were set here for any values at or beyond the usual limits of such assays
Settings: source organism: Bacillus anthracis
Endpoint: pKd
API: returns pKd as number; meaning -log10 of concentration in mol/L.

Sure, the documented pKd for LLYKQLNFT is 5.93
